fold better than Parent (KD) values, listed per item
Target: T1, CEACAM1 (Sino Biological) (human, UniProt P13688 35-428, limits assumed)
T1 construct: may be the same as CEACAM1-HIS; also called hCEACAM1; biotinylated soluble CEACAM1
T1 sequence: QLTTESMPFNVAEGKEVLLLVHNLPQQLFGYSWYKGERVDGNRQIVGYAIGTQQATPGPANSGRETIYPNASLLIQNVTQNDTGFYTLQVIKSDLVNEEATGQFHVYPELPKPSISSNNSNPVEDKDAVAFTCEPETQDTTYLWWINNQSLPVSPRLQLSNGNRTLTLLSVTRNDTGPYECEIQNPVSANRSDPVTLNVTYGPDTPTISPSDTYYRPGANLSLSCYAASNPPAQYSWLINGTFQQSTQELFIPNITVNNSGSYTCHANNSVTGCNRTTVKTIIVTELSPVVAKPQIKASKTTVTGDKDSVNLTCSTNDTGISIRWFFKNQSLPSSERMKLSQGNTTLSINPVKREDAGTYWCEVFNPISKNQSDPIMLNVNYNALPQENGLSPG
Assay: SPR single-cycle
reported_property: fold better than Parent (KD) (fold)

binder	value_observed
He9/L20 (antibody, IgG4, V domains shown, IgG4 S241P, kappa) VH: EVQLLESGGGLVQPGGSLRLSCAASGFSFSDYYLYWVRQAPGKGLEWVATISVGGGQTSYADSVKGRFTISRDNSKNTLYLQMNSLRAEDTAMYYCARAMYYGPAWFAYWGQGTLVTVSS VL: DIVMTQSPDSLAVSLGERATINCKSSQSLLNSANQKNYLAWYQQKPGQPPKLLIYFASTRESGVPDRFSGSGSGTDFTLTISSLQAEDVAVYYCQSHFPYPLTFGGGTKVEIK	3.61
He4/L5 (antibody, IgG4, V domains shown, IgG4 S241P, kappa) VH: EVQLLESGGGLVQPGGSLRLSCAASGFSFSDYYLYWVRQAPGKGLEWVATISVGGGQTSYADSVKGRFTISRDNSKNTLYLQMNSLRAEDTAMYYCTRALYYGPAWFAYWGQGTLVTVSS VL: DIVMTQSPDSLAVSLGERATINCKSSQSLLNSANQKNYLAWYQQKPGQPPKLLIYFASTRESGVPDRFSGSGSGTDFTLTISSLQAEDVAVYYCQSHYPFAFTFGGGTKVEIK	2.36
He3/L3 (antibody, IgG4, V domains shown, IgG4 S241P, kappa) VH: EVQLLESGGGLVQPGGSLRLSCAASGFSFSDYYLYWVRQAPGKGLEWVATISVGGGQTSYADSVKGRFTISRDNSKNTLYLQMNSLRAEDTAMYYCTRALTYGPAWLAYWGQGTLVTVSS VL: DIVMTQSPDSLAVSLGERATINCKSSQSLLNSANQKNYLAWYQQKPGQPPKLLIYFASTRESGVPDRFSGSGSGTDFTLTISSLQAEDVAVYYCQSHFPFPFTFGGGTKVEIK	0.98
He3/L5 (antibody, IgG4, V domains shown, IgG4 S241P, kappa) VH: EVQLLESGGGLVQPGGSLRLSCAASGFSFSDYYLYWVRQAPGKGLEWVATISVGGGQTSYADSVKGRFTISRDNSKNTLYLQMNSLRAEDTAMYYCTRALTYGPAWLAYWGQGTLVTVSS VL: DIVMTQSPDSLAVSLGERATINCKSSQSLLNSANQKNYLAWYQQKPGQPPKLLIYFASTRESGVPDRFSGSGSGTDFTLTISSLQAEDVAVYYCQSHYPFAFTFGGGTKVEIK	1.68
